# TESTED_SYSTEM: 2-5A-dependent ribonuclease (Homo sapiens, UniProt Q05823)
# Sequence (Q05823 whole entry): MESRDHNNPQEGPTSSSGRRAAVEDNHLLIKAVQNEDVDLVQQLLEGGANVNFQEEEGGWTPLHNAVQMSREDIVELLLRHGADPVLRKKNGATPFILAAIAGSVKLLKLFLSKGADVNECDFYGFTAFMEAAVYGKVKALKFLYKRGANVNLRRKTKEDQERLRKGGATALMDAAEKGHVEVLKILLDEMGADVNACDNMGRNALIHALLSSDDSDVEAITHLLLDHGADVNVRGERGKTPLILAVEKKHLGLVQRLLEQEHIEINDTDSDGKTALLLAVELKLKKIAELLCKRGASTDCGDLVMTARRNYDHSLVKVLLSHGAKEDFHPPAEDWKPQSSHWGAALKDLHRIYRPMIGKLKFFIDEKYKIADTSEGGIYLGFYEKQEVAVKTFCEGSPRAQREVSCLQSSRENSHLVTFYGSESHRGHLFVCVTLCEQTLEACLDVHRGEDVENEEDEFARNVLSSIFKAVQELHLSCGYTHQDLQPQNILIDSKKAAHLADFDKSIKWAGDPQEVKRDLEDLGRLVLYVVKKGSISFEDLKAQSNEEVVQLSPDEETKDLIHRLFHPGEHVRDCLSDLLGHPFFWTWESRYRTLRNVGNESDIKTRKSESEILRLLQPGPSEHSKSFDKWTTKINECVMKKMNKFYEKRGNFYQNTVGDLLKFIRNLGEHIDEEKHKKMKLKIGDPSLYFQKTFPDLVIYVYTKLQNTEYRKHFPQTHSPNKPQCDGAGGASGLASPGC
# PROTOCOL_TEXT: […] of human RNaseL ANK domain expressed in Escherichia coli assessed as 5' flurescein-r(C11U2C7)-3' RNA cleavage
# CONDITION_DETAILS: read-out: EC50
Below, each entry is listed with its recorded pEC50.
Please report pEC50 as the negative decimal logarithm of the molar concentration, giving only the number.

// known answers, use as guide
{"INPUT_SMILES": "Cc1nc2c(N)ncnc2n1[C@@H]1O[C@H](COP(=O)(O)O[C@@H]2[C@H](O)[C@@H](COP(=O)(O)O[C@@H]3[C@H](O)[C@@H](COP(=O)(O)O[C@@H]4[C@H](O)[C@@H](COP(=O)(O)O)O[C@H]4n4cnc5c(N)ncnc54)O[C@H]3n3cnc4c(N)ncnc43)O[C@H]2n2cnc3c(N)ncnc32)[C@@H](O)[C@H]1O", "pEC50": 8.60}
{"INPUT_SMILES": "Cc1nc2c(N)ncnc2n1[C@@H]1O[C@H](COP(=O)(O)O[C@@H]2[C@H](O)[C@@H](COP(=O)(O)O[C@@H]3[C@H](O)[C@@H](COP(=O)(O)O[C@@H]4[C@H](O)[C@@H](CO)O[C@H]4n4cnc5c(N)ncnc54)O[C@H]3n3cnc4c(N)ncnc43)O[C@H]2n2cnc3c(N)ncnc32)[C@@H](O)[C@H]1O", "pEC50": 8.60}

Now for another entry.
Q) Reported pEC50 for `Nc1ncnc2c1ncn2[C@@H]1O[C@H](COP(=O)(O)O[C@@H]2[C@H](O)[C@@H](COP(=O)(O)O[C@@H]3[C@H](O)[C@@H](COP(=O)(O)O[C@@H]4[C@H](O)[C@@H](COP(=O)(O)O)O[C@H]4n4cnc5c(N)ncnc54)O[C@H]3n3cnc4c(N)ncnc43)O[C@H]2n2cnc3c(N)ncnc32)[C@@H](O)[C@H]1O` : what is it?
A) 8.01
